The reported measurements were obtained from PubChem BioAssay (NCI).

# PROTOCOL_NOTES: NCI Yeast Anticancer Drug Screen. Data for the bub3 strain (AID 167)
# ASSAY_CONDITIONS: S. cerevisiae bub3 mutant strain, at 50.0 µM, stronger effect = higher value
The panel holds about 79,000 compounds, 15% with a hit somewhere; the sample as a whole holds those more often.
Overview of recorded growth inhibition for various molecules
Number in %, nothing else.

Recorded results for 4 molecules are shown here.
OC(c1ccc(Cl)cc1)c1nc2ccccc2[nH]1 (stereo not given)	19.1
CNS(=O)(=O)c1ccccc1C(=N)c1ccccc1	-45.9
Cc1ccc(S(=O)(=O)N/N=C2/CCCOC2)cc1	24.2
NC(=O)C1C2CC3C(C2O)C31C(N)=O (stereo not given)	-12.9

Param item = Nc1nc(-c2ccccc2)c(Cl)c(-c2cc(Cl)ccc2O)n1 ; retrieve measured growth inhibition.
4.25

* * *

# PROTOCOL_NOTES: NCI Yeast Anticancer Drug Screen. Data for the sgs1 mgt1 strain (AID 161);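 also: 0% = growth of cultures given vehicle only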
# ASSAY_CONDITIONS: S. cerevisiae sgs1 mgt1 strain, at 50.0 µM, stronger effect = higher value
Compounds without any hit were thinned out: in the full panel of roughly 79,000, 15% have a hit.
Mark True for reported growth inhibition of 10% or greater; mark False for anything smaller.

Example cases with answers are listed next.
[N-]=[N+]=NC1OC(=O)C(Cl)=C1N=P(c1ccccc1)(c1ccccc1)c1ccccc1 (centres undefined)	True
COc1ccc(CN2CCCN(Cc3ccc(OC)cc3)C2c2ccc([N+](=O)[O-])cc2)cc1	True
Cc1c2c(cc3c1[nH]c1ccccc13)C(=O)c1ccccc1C2=O	True
Cn1cnc2nc(N)[nH]c(=O)c21	False
OC(C#Cc1ccccc1)(C#Cc1ccccc1)/C=C/c1ccccc1	False
COC(=N)/C(C#N)=N/C1OCC(O)C(O)C1O (centres undefined)	False

Determine whether measured growth inhibition meets or exceeds 10% for O=[N+]([O-])c1ccc(S(=O)(=O)SC(F)(F)F)cc1
False

// repeat for CCCCNS(=O)(=O)c1ccccc1 and report
False

* * *

Overview of recorded growth inhibition for various compounds
# PROTOCOL_NOTES: NCI Yeast Anticancer Drug Screen. Data for the sgs1 mgt1 strain (AID 161);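 also: 0% = growth of cultures given vehicle only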
# ASSAY_CONDITIONS: S. cerevisiae sgs1 mgt1 strain, at 50.0 µM, stronger effect = higher value
About 79,000 compounds went through this panel and 15% of them were active in at least one assay; those are over-represented in the sample as a whole.
Number in %, nothing else.

Recorded results for 5 compounds are shown here.
O=[N+]([O-])c1ccc(C2=NN(c3ccccc3)C(c3ccccc3)C2)cc1 (stereo not given)	0.5
CC(=O)c1cccc(NC(=O)OC2CCCC(C)C2)c1 (stereo not given)	59.6
O=C(c1ccccc1)C1C(c2ccccc2)N1C(=O)c1ccccc1 (stereo not given)	6.35
N#C/C(=C\c1ccccc1)c1cccc(Cl)c1	-13.3
CC(C)NC(=O)Nc1cccc(Cl)c1	17.7

Param item = Cc1ccccc1OCC1COCN(C(C)(C)C)CO1 (stereo not given) ; retrieve measured growth inhibition.
4.95

// repeat for CC/C(=N/N(C)C)C(=O)OC(C)(C)C and report
-15.8

* * *

# PROTOCOL_NOTES: NCI Yeast Anticancer Drug Screen. Data for the sgs1 mgt1 strain (AID 161);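 also: 0% = growth of cultures given vehicle only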
# ASSAY_CONDITIONS: S. cerevisiae sgs1 mgt1 strain, at 50.0 µM, stronger effect = higher value
This is part of a sample that, as a whole, favours compounds with a hit. Of some 79,000 tested, about 15% had one in any assay. Calls of active or inactive are those of the source. No stated cut-off is given here; in the data, active means growth inhibition above about 70%; inactive means the rest.
METRIC: growth inhibition

CC(C)(C)c1ccc(SCC#CCOc2ccc(Cl)cc2)cc1	-4.8% (inactive)
CCOC(=O)c1cn(CC)c2c(ccc3cnccc32)c1=O	-18.4% (inactive)
CN(C)CCSSCCN(C)C	-13.6% (inactive)
CCOC(=O)c1c(N=P(c2ccccc2)(c2ccccc2)c2ccccc2)nnc(-c2ccccc2)c1-c1ccccc1	10.9% (inactive)
N#CSCC(Cl)=CCl (mixture of isomers)	-4.4% (inactive)

Param item = Cc1ccc2nc(N)nc(N)c2c1 ; retrieve measured growth inhibition.
-8.4% (inactive)

// repeat for C=CC12c3c4cc(OC)cc3OC1C(O)CCC2CC4 (stereo unspecified) and report
-6.2% (inactive)

// repeat for COc1cc(\C=N/N=C/C=C/c2ccccc2)cc(OC)c1OC and report
7.95% (inactive)

// repeat for O=C1NN(c2ccccc2)C(=O)C2C3c4ccccc4C(c4ccccc43)C12 (stereo unspecified) and report
0.7% (inactive)

// repeat for CN1CCCC(C(O)c2ccccc2)S1(=O)=O (stereo unspecified) and report
-1.3% (inactive)

// repeat for O=C(OCCCl)C1OC(n2cc(F)c(=O)[nH]c2=O)CC1O (stereo unspecified) and report
2.5% (inactive)
